- runDescription: Bactericidal activity against Salmonella pullorum C7913 incubated for 4 hrs followed by culture spread on agar plates and cultured overnight
- Format: functional, Salmonella enterica subsp. enterica serovar Pullorum
- condition: Salmonella enterica, C7913, 4 h; read-out: MBC>99.9
In this section we review reported MBC values for a set of substances.
A number alone suffices; assume µM.

Some substances with recorded MBC:
1. H-LRPLLRPLLRPLLRPLLRPLLRPL-NH2 = 4
2. H-LKPLLKPLLKPLLKPLLKPLLKPL-NH2 = 8
3. H-LKPLLKPLLKPLLKPLLKPLLKPLLKPLLKPL-NH2 = 4
4. H-LRPLLRPLLRPLLRPLLRPLLRPLLRPL-NH2 = 2
5. H-LRPLLRPLLRPLLRPLLRPL-NH2 = 4
6. H-IRPIIRPIIRPIIRPI-NH2 = 16

Next substance, please.
Record H-IRPIIRPIIRPIIRPIIRPI-NH2 , field MBC: 8

---

- Test system: Escherichia coli
- runDescription: Bactericidal activity against Escherichia coli ATCC 25922 incubated for 4 hrs followed by culture spread on agar plates and cultured overnight in presence of 1 mg/ml chymotrypsin
- Format: functional
- condition: ATCC 25922, 4 h, read-out: MBC>99.9
metricName: MBC (µM)
A number alone suffices; assume µM.

Some substances with recorded MBC:
1. H-IKPIIKPIIKPIIKPIIKPIIKPIIKPI-NH2 = 16
2. H-IRPIIRPIIRPIIRPIIRPIIRPIIRPI-NH2 = 2

Next substance, please.
Record H-LKPLLKPLLKPLLKPLLKPLLKPLLKPL-NH2 , field MBC: 1

---

- System: Pseudomonas aeruginosa
- runDescription: Bactericidal activity against Pseudomonas aeruginosa ATCC 27853 incubated for 4 hrs followed by culture spread on agar plates and cultured overnight
- Type: functional
- condition: ATCC 27853, 4 h, read-out: MBC>99.9
metricName: MBC (µM)
A number alone suffices; assume µM.

Some substances with recorded MBC:
1) H-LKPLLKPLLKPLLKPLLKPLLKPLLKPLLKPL-NH2 = 2
2) H-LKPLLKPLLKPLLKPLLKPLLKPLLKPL-NH2 = 2
3) H-IRPIIRPIIRPIIRPIIRPIIRPIIRPIIRPI-NH2 = 8
4) H-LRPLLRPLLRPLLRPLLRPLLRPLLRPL-NH2 = 4

Next substance, please.
Record H-LRPLLRPLLRPLLRPLLRPLLRPLLRPLLRPL-NH2 , field MBC: 4

---

- runDescription: Cytotoxicity against mouse RAW264.7 cells assessed as cell viability at 4 uM after 18 to 24 hrs by MTT assay relative to control
- Assay type: cell-based
- condition: read-out: Activity
metricName: viability at 4 µM (%)
A number alone suffices; assume %.

Record H-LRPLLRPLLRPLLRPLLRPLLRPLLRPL-NH2 , field viability at 4 µM: 7.52

---

- Test system: Escherichia coli
- runDescription: Bactericidal activity against Escherichia coli ATCC 25922 incubated for 4 hrs followed by culture spread on agar plates and cultured overnight in presence of 0.25 mg/ml trypsin
- Assay type: functional
- condition: ATCC 25922, 4 h, read-out: MBC>99.9
metricName: MBC (µM)
A number alone suffices; assume µM.

1) H-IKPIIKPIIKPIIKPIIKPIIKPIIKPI-NH2 = 16
2) H-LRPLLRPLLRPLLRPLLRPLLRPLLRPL-NH2 = 2
3) H-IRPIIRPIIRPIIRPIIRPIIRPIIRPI-NH2 = 2

Next substance, please.
Record H-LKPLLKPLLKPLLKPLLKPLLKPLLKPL-NH2 , field MBC: 1

---

- Tested on: Klebsiella pneumoniae
- runDescription: Bactericidal activity against Klebsiella pneumoniae incubated for 4 hrs followed by culture spread on agar plates and cultured overnight
- Assay type: functional
- condition: read-out: MBC>99.9
Mark rule met only when MBC stays strictly below 8 µM. Values equal to the cut-off are rule not met.

The examples below pair each entry with its known result.
1. H-IKPIIKPIIKPIIKPIIKPIIKPIIKPIIKPI-NH2 = rule not met
2. H-LKPLLKPLLKPLLKPL-NH2 = rule not met
3. H-IKPIIKPIIKPIIKPIIKPI-NH2 = rule not met
4. H-LRPLLRPLLRPLLRPLLRPLLRPLLRPLLRPL-NH2 = rule met
5. H-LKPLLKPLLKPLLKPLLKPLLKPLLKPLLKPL-NH2 = rule met

Threshold test, MBC < 8 µM: H-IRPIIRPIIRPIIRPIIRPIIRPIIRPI-NH2
rule met

Threshold test, MBC < 8 µM: H-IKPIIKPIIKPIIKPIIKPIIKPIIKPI-NH2
rule not met

Threshold test, MBC < 8 µM: H-IRPIIRPIIRPIIRPI-NH2
rule not met

Threshold test, MBC < 8 µM: H-IRPIIRPIIRPIIRPIIRPI-NH2
rule not met

Threshold test, MBC < 8 µM: H-IKPIIKPIIKPIIKPIIKPIIKPI-NH2
rule not met

Threshold test, MBC < 8 µM: H-VKPVVKPVVKPVVKPVVKPVVKPV-NH2
rule not met

Threshold test, MBC < 8 µM: H-LRPLLRPLLRPLLRPL-NH2
rule not met

Threshold test, MBC < 8 µM: H-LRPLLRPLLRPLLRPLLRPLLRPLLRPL-NH2
rule met

Threshold test, MBC < 8 µM: H-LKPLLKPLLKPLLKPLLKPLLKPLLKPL-NH2
rule met

Threshold test, MBC < 8 µM: H-VKPVVKPVVKPVVKPVVKPVVKPVVKPV-NH2
rule not met

Threshold test, MBC < 8 µM: H-IKPIIKPIIKPIIKPI-NH2
rule not met

Threshold test, MBC < 8 µM: H-VRPVVRPVVRPVVRPVVRPVVRPVVRPV-NH2
rule not met

Threshold test, MBC < 8 µM: H-LKPLLKPLLKPLLKPLLKPL-NH2
rule not met

Threshold test, MBC < 8 µM: H-VRPVVRPVVRPVVRPVVRPVVRPV-NH2
rule not met

---

- Tested on: Escherichia coli
- runDescription: Bactericidal activity against Escherichia coli ATCC 25922 incubated for 4 hrs followed by culture spread on agar plates and cultured overnight in presence of 12.5% serum albumin
- Type: functional
- condition: ATCC 25922, 4 h, read-out: MBC>99.9
metricName: MBC (µM)
A number alone suffices; assume µM.

Some substances with recorded MBC:
1) H-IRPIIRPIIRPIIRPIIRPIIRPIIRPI-NH2 = 8
2) H-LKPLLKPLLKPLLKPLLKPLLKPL-NH2 = 8
3) H-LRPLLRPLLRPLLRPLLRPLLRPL-NH2 = 8
4) H-IRPIIRPIIRPIIRPIIRPIIRPI-NH2 = 16
5) H-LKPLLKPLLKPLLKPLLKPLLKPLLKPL-NH2 = 2

Next substance, please.
Record H-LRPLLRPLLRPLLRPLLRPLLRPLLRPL-NH2 , field MBC: 4

---

- System: Escherichia coli
- runDescription: Bactericidal activity against Escherichia coli K88 incubated for 4 hrs followed by culture spread on agar plates and cultured overnight
- Format: functional
- condition: K88, 4 h, read-out: MBC>99.9
metricName: MBC (µM)
A number alone suffices; assume µM.

Record H-LRPLLRPLLRPLLRPL-NH2 , field MBC: 8

Record H-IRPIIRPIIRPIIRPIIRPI-NH2 , field MBC: 1

Record H-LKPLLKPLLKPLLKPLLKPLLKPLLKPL-NH2 , field MBC: 1

---

- Test system: Pseudomonas aeruginosa
- runDescription: Bactericidal activity against Pseudomonas aeruginosa ATCC 27853 incubated for 4 hrs followed by culture spread on agar plates and cultured overnight
- Format: functional
- condition: ATCC 27853, 4 h, read-out: MBC>99.9
metricName: MBC (µM)
A number alone suffices; assume µM.

Some substances with recorded MBC:
1. H-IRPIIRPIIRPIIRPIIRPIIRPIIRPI-NH2 = 8
2. H-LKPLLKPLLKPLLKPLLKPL-NH2 = 16
3. H-IRPIIRPIIRPIIRPIIRPIIRPI-NH2 = 16
4. H-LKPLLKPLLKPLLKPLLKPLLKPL-NH2 = 4
5. H-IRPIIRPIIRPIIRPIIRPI-NH2 = 64

Next substance, please.
Record H-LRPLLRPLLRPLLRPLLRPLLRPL-NH2 , field MBC: 16

---

- Test system: Escherichia coli
- runDescription: Antimicrobial activity against Escherichia coli 078 after 24 hrs by NCCLS-protocol based assay
- Assay type: functional
- condition: Escherichia coli, 078, 24 h
metricName: MIC95 (µM)
A number alone suffices; assume µM.

1) H-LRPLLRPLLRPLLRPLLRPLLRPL-NH2 = 2

Next substance, please.
Record H-IKPIIKPIIKPIIKPIIKPIIKPIIKPIIKPI-NH2 , field MIC95: 32

---

In this section we review reported hemolysis at 1 h, up to 128 µM values for a set of substances.
- runDescription: Hemolytic activity against human RBC at 1 to 128 uM after 1 hr
- Type: ADME, cell-based, Erythrocyte
- condition: red blood cells (erythrocytes), read-out: Activity

1. H-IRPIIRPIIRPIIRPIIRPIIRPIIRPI-NH2 = < 5%

Next substance, please.
Record H-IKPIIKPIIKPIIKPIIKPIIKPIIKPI-NH2 , field hemolysis at 1 h, up to 128 µM: < 5%
